# experimental-details: in vitro
# conditions-used: human
value-type: CC50 (µM)
Kindly answer with a numeric value in µM, unit omitted.

| input-smiles | value-type | value-observed |
| --- | --- | --- |
| O=C(Nc1ccc(Nc2ccncc2)cc1)c1ccc(Nc2ccnc3ccc([N+](=O)[O-])cc23)cc1 | CC50 | 82 |

Here is the next item to consider.
GET /values?readout=CC50&item= "O=C1C=CC(=NNc2ccc([N+](=O)[O-])cc2Cl)C=C1C(=O)Nc1cccc(Cl)c1"
48.8

====

# Tested on: ZIKV
# experimental-details: microbe, parasite or virus in culture
# Format: cell-based
# conditions-used: Zika virus; hNPCs, MOI 2; read-out: EC50, ZIKV inhibition in hNPCs
value-type: EC50 (nM)
Kindly answer with a numeric value in nM, unit omitted.

GET /values?readout=EC50&item= O=C1C=CC(=NNc2ccc([N+](=O)[O-])cc2Cl)C=C1C(=O)Nc1cccc(Cl)c1 [NSC135618]
1900

====

# Test system: DENV2
# experimental-details: microbe, parasite or virus in culture
# conditions-used: Dengue virus, A549, 48 h, read-out: EC50, DENV2 viral reduction
value-type: EC50 (µM)
Kindly answer with a numeric value in µM, unit omitted.

| compound | EC50 [µM] |
| --- | --- |
| Cn1ccc(=Nc2ccc(NC(=O)c3ccc(N=c4ccn(C)c5ccc([N+](=O)[O-])cc45)cc3)cc2)cc1 [NSC260594] | 13.5 |

GET /values?readout=EC50&item= O=C1C=CC(=NNc2ccc([N+](=O)[O-])cc2Cl)C=C1C(=O)Nc1cccc(Cl)c1 [NSC135618]
0.81

The origin of these recorded values is paper PMC5462475.
